Just for reference, paper PMC3994062 is where these values come from.

- ASSAY SYSTEM: PbICLc (Paracoccidioides lutzii)
- Sequence (C1H8F5 entry or part of it): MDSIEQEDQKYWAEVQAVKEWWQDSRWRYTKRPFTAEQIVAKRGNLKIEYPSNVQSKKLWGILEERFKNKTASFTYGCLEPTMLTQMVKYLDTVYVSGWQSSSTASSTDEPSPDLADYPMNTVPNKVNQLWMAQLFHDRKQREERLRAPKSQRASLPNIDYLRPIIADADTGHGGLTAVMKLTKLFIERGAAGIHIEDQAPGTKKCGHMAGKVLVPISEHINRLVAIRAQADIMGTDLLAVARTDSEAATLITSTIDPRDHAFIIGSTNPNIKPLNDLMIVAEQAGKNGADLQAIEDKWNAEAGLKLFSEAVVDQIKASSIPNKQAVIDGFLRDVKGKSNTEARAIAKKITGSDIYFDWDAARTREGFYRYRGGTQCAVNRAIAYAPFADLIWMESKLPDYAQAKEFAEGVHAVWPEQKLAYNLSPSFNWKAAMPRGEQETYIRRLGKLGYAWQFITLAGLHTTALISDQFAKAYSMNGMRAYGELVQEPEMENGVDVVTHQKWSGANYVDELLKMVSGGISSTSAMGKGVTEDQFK
- EXPERIMENT: Enzymatic activity of native PbICL in crude protein extract of yeast cells (PbICLc)
- Format: biochemical
- RUN PARAMETERS: crude extract of yeast cells grown on acetate; N.I. = No inhibition found; control 0.080±0.004
PROPERTY: Specific activity PbICLc Acetate (U/mg)
API: value field is a number in U/mg; no unit string.

// query Quick one: Specific activity PbICLc Acetate for O=C(O)CC[N+](=O)[O-] [3-Nitropropionate, reference compound] ?
// result 0.036

// query Quick one: Specific activity PbICLc Acetate for CCCCCCCC1CC=CC(=O)O1 (stereo in doubt) ?
// result 0.067

// query Quick one: Specific activity PbICLc Acetate for `CCCCC/C=C\[C@H]1CC=CC(=O)O1` ?
// result 0.040
